# method: Induction of NO release per mol of compound in phosphate buffer at pH 7.4 at 100 uM after 1 hr by Griess assay
# Assay type: physicochemical
# conditions.used: pH 7.4, 1 h
NO release: recorded values
Respond with the bare value in mol/mol.

Example entries begin here.
# compound, measurement.name, measured.number
measured = [
    ("COc1ccc(C2=NN(C(=O)CO[N+](=O)[O-])C(c3ccco3)C2)cc1OC (centres undefined)", "NO release", 0.126),
    ("COc1ccc(C2CC(c3ccc(OC)c(OC)c3)=NN2C(=O)CNc2ccc(/C(C)=N/O)cc2)c(OC)c1 (centres undefined)", "NO release", 0.137),
]

Reported NO release for COc1ccc(C2=NN(C(=O)CO[N+](=O)[O-])C(c3c(Cl)cccc3Cl)C2)cc1 (centres undefined) was 0.195

NO release recorded for this compound, COc1ccc(C2=NN(C(=O)C(C)O[N+](=O)[O-])C(c3c(Cl)cccc3Cl)C2)cc1OC (centres undefined) , is 0.123

NO release reported for this compound COc1ccc(C2=NN(C(=O)C(C)O[N+](=O)[O-])C(c3ccco3)C2)cc1OC (centres undefined) : 0.078

Sure, the documented NO release for COc1ccc(C2=NN(C(=O)CNc3ccc(/C(C)=N/O)cc3)C(c3ccco3)C2)cc1OC (centres undefined) is 0.118

GET /value?item= COc1ccc(C2=NN(C(=O)CO[N+](=O)[O-])C(c3c(Cl)cccc3Cl)C2)cc1OC (centres undefined) &field=NO release returns 0.147

Documented NO release of COc1ccc(C2CC(c3ccc(OC)c(OC)c3)=NN2C(=O)C(C)O[N+](=O)[O-])c(OC)c1 (centres undefined) : 0.098

Sample COc1ccc(C2CC(c3ccc(OC)c(OC)c3)=NN2C(=O)CO[N+](=O)[O-])c(OC)c1 (centres undefined) ; NO release observed: 0.329

* * *

# method: Induction of NO release per mol of compound in phosphate buffer at pH 7.4 at 100 uM after 5 hrs by Griess assay
# Format: physicochemical
# conditions.used: pH 7.4, 5 h
Decision: NO release >= 0.7 mol/mol yields YES, all other cases yield NO.

Solved entries:
# molecule, qualitative.label
data = [
    ("COc1ccc(C2=NN(C(=O)C(C)O[N+](=O)[O-])C(c3c(Cl)cccc3Cl)C2)cc1OC (centres undefined)", "NO"),
    ("COc1ccc(C2CC(c3ccc(OC)c(OC)c3)=NN2C(=O)CNc2ccc(/C(C)=N/O)cc2)c(OC)c1 (centres undefined)", "NO"),
    ("COc1ccc(C2=NN(C(=O)CO[N+](=O)[O-])C(c3ccco3)C2)cc1OC (centres undefined)", "NO"),
    ("COc1ccc(C2CC(c3ccc(OC)c(OC)c3)=NN2C(=O)CO[N+](=O)[O-])c(OC)c1 (centres undefined)", "YES"),
    ("COc1ccc(C2=NN(C(=O)C(C)O[N+](=O)[O-])C(c3ccco3)C2)cc1OC (centres undefined)", "NO"),
    ("COc1ccc(C2=NN(C(=O)CO[N+](=O)[O-])C(c3c(Cl)cccc3Cl)C2)cc1OC (centres undefined)", "YES"),
]

Prompt: Can COc1ccc(C2=NN(C(=O)CNc3ccc(/C(C)=N/O)cc3)C(c3ccco3)C2)cc1OC (centres undefined) be said to have NO release at or above 0.7 mol/mol?
Response: NO

Prompt: Can COc1ccc(C2=NN(C(=O)CO[N+](=O)[O-])C(c3c(Cl)cccc3Cl)C2)cc1 (centres undefined) be said to have NO release at or above 0.7 mol/mol?
Response: NO

Prompt: Hi team, for COc1ccc(C2CC(c3ccc(OC)c(OC)c3)=NN2C(=O)C(C)O[N+](=O)[O-])c(OC)c1 (centres undefined) , is the recorded NO release at or above 0.7 mol/mol?
Response: NO

* * *

# Tested on: Rattus norvegicus
# method: Gastrotoxicity in albino rat assessed as ulcer index at 100 mg/kg, po after 5 hrs
# Format: toxicity, organism-based
# Parameters: dose 100 mg/kg, route oral
# conditions.used: in vivo
measurement.name: UI
Just the number.

# molecule, UI
measured = [
    ("COc1ccc(C2CC(c3ccc(OC)c(OC)c3)=NN2C(=O)CBr)c(OC)c1 (stereo unspecified)", 30),
    ("COc1ccc(C2CC(c3ccc(OC)c(OC)c3)=NN2C(=O)C(C)Br)c(OC)c1 (stereo unspecified)", 23),
    ("COc1ccc2c(c1)c(CC(=O)O)c(C)n2C(=O)c1ccc(Cl)cc1", 43.5),
]

// recorded UI for COc1ccc(C2=NN(C(=O)CBr)C(c3c(Cl)cccc3Cl)C2)cc1 (stereo unspecified) : 6

COc1ccc(C2=NNC(c3c(Cl)cccc3Cl)C2)cc1OC (stereo unspecified) yielded UI of 3

Noted for COc1ccc(C2=NNC(c3ccco3)C2)cc1OC (stereo unspecified) : its UI reads 26.5

* * *

# method: Induction of NO release per mol of compound in phosphate buffer at pH 7.4 at 100 uM after 6 hrs by Griess assay
# Format: physicochemical
# conditions.used: pH 7.4, 6 h
Label criterion met when NO release >= 0.5 mol/mol; otherwise criterion not met.

# compound, qualitative.label
data = [
    ("COc1ccc(C2=NN(C(=O)CO[N+](=O)[O-])C(c3c(Cl)cccc3Cl)C2)cc1 (centres undefined)", "criterion met"),
    ("COc1ccc(C2=NN(C(=O)CO[N+](=O)[O-])C(c3c(Cl)cccc3Cl)C2)cc1OC (centres undefined)", "criterion met"),
    ("COc1ccc(C2CC(c3ccc(OC)c(OC)c3)=NN2C(=O)CO[N+](=O)[O-])c(OC)c1 (centres undefined)", "criterion met"),
    ("COc1ccc(C2=NN(C(=O)C(C)O[N+](=O)[O-])C(c3c(Cl)cccc3Cl)C2)cc1OC (centres undefined)", "criterion not met"),
    ("COc1ccc(C2=NN(C(=O)C(C)O[N+](=O)[O-])C(c3ccco3)C2)cc1OC (centres undefined)", "criterion not met"),
]

Prompt: // inclusive: NO release at least 0.5 mol/mol? input: COc1ccc(C2=NN(C(=O)CNc3ccc(/C(C)=N/O)cc3)C(c3ccco3)C2)cc1OC (centres undefined)
Response: criterion not met

Prompt: Check the entry COc1ccc(C2=NN(C(=O)CO[N+](=O)[O-])C(c3ccco3)C2)cc1OC (centres undefined) : does NO release equal or exceed 0.5 mol/mol?
Response: criterion met

Prompt: Is it the case that COc1ccc(C2CC(c3ccc(OC)c(OC)c3)=NN2C(=O)CNc2ccc(/C(C)=N/O)cc2)c(OC)c1 (centres undefined) has NO release reaching or exceeding 0.5 mol/mol?
Response: criterion not met

Prompt: Check this compound for NO release at or above 0.5 mol/mol: COc1ccc(C2CC(c3ccc(OC)c(OC)c3)=NN2C(=O)C(C)O[N+](=O)[O-])c(OC)c1 (centres undefined)
Response: criterion not met

* * *

Consider the following compounds and their measured NO release readings.
# method: Induction of NO release per mol of compound in phosphate buffer at pH 7.4 at 100 uM after 4 hrs by Griess assay
# Type: physicochemical
# conditions.used: pH 7.4, 4 h
Give the value, in units of mol/mol, as a plain number.

Some compounds with recorded NO release:
# compound, measurement.name, measured.number
data = [
    ("COc1ccc(C2=NN(C(=O)CO[N+](=O)[O-])C(c3ccco3)C2)cc1OC (centres undefined)", "NO release", 0.483),
    ("COc1ccc(C2=NN(C(=O)C(C)O[N+](=O)[O-])C(c3c(Cl)cccc3Cl)C2)cc1OC (centres undefined)", "NO release", 0.255),
    ("COc1ccc(C2CC(c3ccc(OC)c(OC)c3)=NN2C(=O)CNc2ccc(/C(C)=N/O)cc2)c(OC)c1 (centres undefined)", "NO release", 0.194),
    ("COc1ccc(C2=NN(C(=O)CO[N+](=O)[O-])C(c3c(Cl)cccc3Cl)C2)cc1OC (centres undefined)", "NO release", 0.555),
    ("COc1ccc(C2CC(c3ccc(OC)c(OC)c3)=NN2C(=O)C(C)O[N+](=O)[O-])c(OC)c1 (centres undefined)", "NO release", 0.128),
]

// next entry
Lookup result for COc1ccc(C2=NN(C(=O)C(C)O[N+](=O)[O-])C(c3ccco3)C2)cc1OC (centres undefined) ; measured NO release: 0.2

* * *

# System: Rattus norvegicus
# method: Antiinflammatory activity in albino rat assessed as inhibition of carrageenan-induced paw edema at 100 mg/kg, po treated for 30 mins measured after 3 hrs of carrageenan challenge
# Type: functional
measurement.name: inhibition in vivo at 100 mg/kg (%)
Record the value in %, omitting the unit from your answer.

Worked examples follow.
# molecule, inhibition in vivo at 100 mg/kg [%]
rows = [
    ("COc1ccc(C2=NN(C(=O)CO[N+](=O)[O-])C(c3c(Cl)cccc3Cl)C2)cc1OC (stereo unspecified)", 58),
    ("COc1ccc(C2CC(c3ccc(OC)c(OC)c3)=NN2C(=O)C(C)Br)c(OC)c1 (stereo unspecified)", 69),
    ("COc1ccc(C2=NN(C(=O)CBr)C(c3c(Cl)cccc3Cl)C2)cc1 (stereo unspecified)", 7),
    ("COc1ccc(C2=NN(C(=O)CNc3ccc(/C(C)=N/O)cc3)C(c3ccco3)C2)cc1OC (stereo unspecified)", 46),
]

// COc1ccc(C2=NN(C(=O)CBr)C(c3ccco3)C2)cc1OC (stereo unspecified) : inhibition in vivo at 100 mg/kg value = 51

inhibition in vivo at 100 mg/kg reading for COc1ccc(C2=NN(C(=O)CBr)C(c3c(Cl)cccc3Cl)C2)cc1OC (stereo unspecified) : 69

Item: COc1ccc(C2=NN(C(=O)C(C)Br)C(c3ccco3)C2)cc1OC (stereo unspecified) | inhibition in vivo at 100 mg/kg: 42

Recorded inhibition in vivo at 100 mg/kg (molecule COc1ccc(C2=NN(C(=O)CO[N+](=O)[O-])C(c3ccco3)C2)cc1OC (stereo unspecified) ): 43

// inhibition in vivo at 100 mg/kg lookup, molecule = COc1ccc(C2=NN(C(=O)C(C)O[N+](=O)[O-])C(c3ccco3)C2)cc1OC (stereo unspecified) , result: 42

Please fill in: inhibition in vivo at 100 mg/kg reported for COc1ccc2c(c1)c(CC(=O)O)c(C)n2C(=O)c1ccc(Cl)cc1 = 82

Sure, the documented inhibition in vivo at 100 mg/kg for COc1ccc(C2CC(c3ccc(OC)c(OC)c3)=NN2C(=O)CNc2ccc(/C(C)=N/O)cc2)c(OC)c1 (stereo unspecified) is 46

The origin of these recorded values is ChEMBL document CHEMBL1152474.
